Where do the numbers come from? From PubChem BioAssay (Tox21).

target: Androgen receptor (Homo sapiens) (UniProt P10275); experiment: qHTS assay to identify small molecule antagonists of the androgen receptor (AR) signaling pathway using the MDA cell line (AID 743042; also: nearly all actives have a fitted effect of over 55% in size); conditions: MDA-kb2 AR-luc, MMTV luciferase, R1881 antagonist, 16 h; series mostly up to 70.3 µM
Sequence (P10275 whole entry, looked up): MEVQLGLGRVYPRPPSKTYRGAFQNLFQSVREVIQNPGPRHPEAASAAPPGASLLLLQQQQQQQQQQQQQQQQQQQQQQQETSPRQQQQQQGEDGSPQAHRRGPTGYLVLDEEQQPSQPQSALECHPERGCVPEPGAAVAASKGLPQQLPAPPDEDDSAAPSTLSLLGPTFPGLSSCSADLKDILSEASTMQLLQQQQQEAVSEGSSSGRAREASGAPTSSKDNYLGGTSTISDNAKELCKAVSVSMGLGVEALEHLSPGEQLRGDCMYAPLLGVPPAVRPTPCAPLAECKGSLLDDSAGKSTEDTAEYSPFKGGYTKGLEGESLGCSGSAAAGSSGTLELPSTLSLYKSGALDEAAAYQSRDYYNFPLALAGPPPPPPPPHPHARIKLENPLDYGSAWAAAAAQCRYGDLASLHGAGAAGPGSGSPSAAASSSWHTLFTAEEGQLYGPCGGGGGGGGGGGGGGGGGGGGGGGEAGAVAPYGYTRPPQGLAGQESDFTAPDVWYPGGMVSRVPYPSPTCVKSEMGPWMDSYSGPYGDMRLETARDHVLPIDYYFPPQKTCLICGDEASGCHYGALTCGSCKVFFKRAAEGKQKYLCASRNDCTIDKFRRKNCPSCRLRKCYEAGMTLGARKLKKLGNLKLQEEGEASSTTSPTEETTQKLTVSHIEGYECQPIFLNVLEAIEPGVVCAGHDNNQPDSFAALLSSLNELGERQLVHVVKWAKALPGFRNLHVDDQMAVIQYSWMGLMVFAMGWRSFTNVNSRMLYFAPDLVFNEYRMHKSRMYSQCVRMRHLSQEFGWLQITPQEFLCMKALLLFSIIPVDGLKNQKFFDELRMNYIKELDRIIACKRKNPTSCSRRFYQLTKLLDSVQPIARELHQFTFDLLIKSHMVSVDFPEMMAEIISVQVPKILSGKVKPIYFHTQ
Records with an inconclusive call do not appear. Active and inactive are the calls of the source. Calls follow the shape of the dose curve; as a rule, active = well fitted inhibition curve with a large enough effect in the repeat runs; inconclusive = weak or mixed curves, or effect the other way; inactive = no such curve, though single readings can be large or run the other way.
API: response.call in 1 (yes) = active, 0 (no) = inactive

Consider the worked cases shown below.
- O=C(O)c1ccc(NC(=O)[C@H](Cc2ccc(O)cc2)NC(=O)c2ccccc2)cc1: 0 (no)
- CCCCCCCCCCCCCCCC(=O)OC[C@@H](COP(=O)([O-])OCC[N+](C)(C)C)OC(=O)CCCCCCCCCCCCCCC: 0 (no)
- CC(C)(CO)[C@@H](O)C(=O)NCCCC(=O)O: 0 (no)
- CC1(C)S[C@@H]2[C@H](NC(=O)C3(N)CCCCC3)C(=O)N2[C@H]1C(=O)O: 0 (no)
- CCOC(=O)CCC(=O)O[C@H]1[C@H](O[C@@H]2[C@@H](C)[C@H](O[C@H]3C[C@@](C)(OC)[C@@H](O)[C@H](C)O3)[C@@H](C)C(=O)O[C@H](CC)[C@@](C)(O)[C@H](O)[C@@H](C)C(=O)[C@H](C)C[C@@]2(C)O)O[C@H](C)C[C@@H]1N(C)C: 0 (no)

Qu. Each compound tested received a call. Report the one for CN(C)CC/C=C1/c2ccccc2CSc2ccccc21 .
Ans. 0 (no)

Qu. Each compound tested received a call. Report the one for C#CCC(Cc1cnc2nc(N)nc(N)c2n1)c1ccc(C(=O)N[C@@H](CCC(=O)O)C(=O)O)cc1 (some centres not stated) .
Ans. 0 (no)

Qu. Each compound tested received a call. Report the one for N[C@@H](C(=O)N[C@@H]1C(=O)N2C(C(=O)O)=C(CSc3cn[nH]n3)CS[C@H]12)c1ccc(O)cc1 .
Ans. 0 (no)

Qu. Each compound tested received a call. Report the one for CC1=C(/C=C/C(C)=C/C=C/C(C)=C/C=C/C=C(C)/C=C/C=C(C)/C=C/C2=C(C)C[C@@H](O)CC2(C)C)C(C)(C)C[C@H](O)C1 .
Ans. 1 (yes)

Qu. Each compound tested received a call. Report the one for Cc1cc(Nc2ccccc2C(=O)O)ccc1Cl .
Ans. 0 (no)

* * *

target: Aryl hydrocarbon receptor (Homo sapiens) (UniProt P35869); test: qHTS assay to identify small molecule that activate the aryl hydrocarbon receptor (AhR) signaling pathway (AID 743085); conditions: HepG2 AhR-luc (HG2L7.5c1), luciferase, 24 h; series mostly up to 70.3 µM; also: nearly all actives have a fitted effect of over 15% in size;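 as to activation: HG2L7.5c1 human HepG2 liver cells with stably integrated DRE-driven firefly reporter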
Sequence (P35869 whole entry, looked up): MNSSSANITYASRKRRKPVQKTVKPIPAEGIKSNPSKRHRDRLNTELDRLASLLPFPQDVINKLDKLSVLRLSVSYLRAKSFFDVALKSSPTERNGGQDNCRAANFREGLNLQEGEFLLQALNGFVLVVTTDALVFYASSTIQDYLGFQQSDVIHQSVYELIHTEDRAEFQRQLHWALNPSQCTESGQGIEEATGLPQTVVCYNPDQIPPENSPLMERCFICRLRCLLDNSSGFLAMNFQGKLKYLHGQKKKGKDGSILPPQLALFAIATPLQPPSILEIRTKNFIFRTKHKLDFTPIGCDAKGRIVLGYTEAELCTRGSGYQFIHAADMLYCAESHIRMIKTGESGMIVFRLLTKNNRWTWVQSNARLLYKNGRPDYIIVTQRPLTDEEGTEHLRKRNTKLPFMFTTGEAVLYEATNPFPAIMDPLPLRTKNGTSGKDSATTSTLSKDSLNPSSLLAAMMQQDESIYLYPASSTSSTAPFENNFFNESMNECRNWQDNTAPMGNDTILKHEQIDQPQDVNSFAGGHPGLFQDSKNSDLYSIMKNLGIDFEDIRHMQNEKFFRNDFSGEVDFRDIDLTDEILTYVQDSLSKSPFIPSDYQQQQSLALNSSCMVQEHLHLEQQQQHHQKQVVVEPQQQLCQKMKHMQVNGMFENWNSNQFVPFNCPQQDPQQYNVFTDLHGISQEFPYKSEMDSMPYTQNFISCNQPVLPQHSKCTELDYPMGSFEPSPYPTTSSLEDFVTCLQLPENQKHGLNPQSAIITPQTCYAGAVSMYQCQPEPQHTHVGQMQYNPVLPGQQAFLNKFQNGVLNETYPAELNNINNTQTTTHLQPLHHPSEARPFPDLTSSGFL
Records with an inconclusive call do not appear. The source made the active and inactive calls. Calls come from the whole dose curve; as a rule, active = well fitted activation curve with a large enough effect in the repeat runs; inconclusive = weak or mixed curves; inactive = no such curve, though single readings can be large or run the other way.
API: response.call in YES (active), NO (inactive)

* CCN(CC)CCC(=O)N1c2ccccc2Sc2ccc(Cl)cc21 | NO
* Cc1ccccc1CNc1ncnc2c1ncn2[C@@H]1O[C@H](CO)[C@@H](O)[C@H]1O | NO
* O=C(OCCO)c1ccccc1O | NO
* CCCCCC(O)/C=C/C=O (configuration not stated) | NO
* c1ccc2c(CCC3CCNCC3)c[nH]c2c1 | YES
* O=C(CO)[C@@H](O)[C@H](O)[C@@H](O)C(=O)O | NO

Qu. Each molecule tested received a call. Report the one for O=P(O)(O)OC(CO)CO .
Ans. NO

Qu. Each molecule tested received a call. Report the one for CN(C)CCOc1ccccc1Cc1ccccc1 (tested in a mixture with another compound) .
Ans. NO

Qu. Each molecule tested received a call. Report the one for C[C@]12C=CC(=O)N[C@@H]1CC[C@@H]1[C@@H]2CC[C@]2(C)[C@@H](C(=O)Nc3cc(C(F)(F)F)ccc3C(F)(F)F)CC[C@@H]12 .
Ans. NO

Qu. Each molecule tested received a call. Report the one for CN1CCN(CCCN2c3ccccc3Sc3ccccc32)CC1 .
Ans. NO

Qu. Each molecule tested received a call. Report the one for CC(C)CCC[C@@H](C)[C@H]1CC(=O)C2=C3CC[C@H]4C[C@@H](O)CC[C@]4(C)[C@H]3CC[C@@]21C .
Ans. NO
